System: Acinetobacter baumannii ATCC17961
assay-method-text: Antimicrobial susceptibility testing: 90% growth inhibitory concentration (IC90) determination in Iso-Sensitest broth, OD600 growth
Type: cell-based
particulars: Acinetobacter baumannii, ATCC17961, 16 h, strain ATCC 17961, OD600 growth over 16 h, read-out: A. baumannii ATCC 17961 IC90
Entries are sorted into classes by IC90 as follows: low range: < 200 nM; mid range: ≥ 200 nM and < 900 nM; high range: ≥ 900 nM

Here's what some known entries look like.
1. C[C@H](N)C(=O)N1CCN(C(=O)c2ccc(Nc3nccn4c(-c5cn(CC#N)nc5C(F)(F)F)cnc34)cc2Cl)CC1; low range
2. CCc1cc(Nc2nccn3c(-c4cn(CC#N)nc4C(F)F)cnc23)ccc1C(=O)N1CCN(C(=O)C2CCNCC2)CC1; high range
3. CCc1cc(Nc2nccn3c(-c4cn(CC#N)nc4C(F)(F)F)cnc23)ccc1C(=O)NCCNC(=O)[C@H]1C[C@@H](N)C1; low range
4. NCC(=O)N1CCN(C(=O)c2ccc(Nc3nccn4c(-c5c[nH]nc5C(F)(F)F)cnc34)cc2Cl)CC1; low range
5. CCc1cc(Nc2nccn3c(-c4cn(CCF)nc4C(F)F)cnc23)ccc1C(=O)N1CCN(C(=O)[C@H](C)N)CC1; high range

Any idea which band C#CCn1cc(-c2cnc3c(Nc4ccc(C(=O)NCCOCCN)c(CC)c4)nccn23)c(C(F)F)n1 is in?
mid range

Please classify: C#CCn1cc(-c2cnc3c(Nc4ccc(C(=O)NCCOCCN)c(C)c4)nccn23)c(C(F)(F)F)n1
low range

Lab log: CCc1cc(Nc2nccn3c(-c4cn(CC#N)nc4C(F)(F)F)cnc23)ccc1C(=O)NCCNC(=O)N1CC[C@@H](N)C1 — assign IC90 category
mid range

Form: Item = C=CCn1cc(-c2cnc3c(Nc4ccc(C(=O)N5CCN(C(=O)[C@@H]6C[C@@H](O)CN6)CC5)c(CC)c4)nccn23)c(C(F)F)n1 ; Class = ?
high range

Class label required: CCc1cc(Nc2nccn3c(-c4cn(Cc5ccn(CC#N)n5)nc4C(F)(F)F)cnc23)ccc1C(=O)NC
mid range
